# TARGET DESC: KRAS G13C (Homo sapiens, UniProt P01116+P62937, G13C)
# Sequence (P01116 1-169 isoform P01116-2 G13C): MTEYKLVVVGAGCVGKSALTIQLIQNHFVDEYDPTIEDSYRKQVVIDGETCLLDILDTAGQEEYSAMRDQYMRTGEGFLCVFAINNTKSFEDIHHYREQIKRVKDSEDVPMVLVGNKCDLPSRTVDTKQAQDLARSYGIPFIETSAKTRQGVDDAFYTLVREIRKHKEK
# Sequence (P62937 whole entry): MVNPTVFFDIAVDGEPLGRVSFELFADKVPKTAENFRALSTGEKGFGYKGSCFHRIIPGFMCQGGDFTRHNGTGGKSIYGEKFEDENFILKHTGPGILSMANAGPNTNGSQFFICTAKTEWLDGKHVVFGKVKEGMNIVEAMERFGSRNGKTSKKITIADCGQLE
# TEST METHOD NOTES: Disruption of BRAF RBD interaction with Ras (FRET / MOA assay, with Cyclophilin A)
# Assay type: biochemical
# CONDITION PARAMETERS: read-out: KRAS G13C FRET data, IC50
ENDPOINT LABEL: IC50

I have this compound here, CCn1c(-c2cccnc2[C@H](C)OC)c2c3cc(ccc31)-c1csc(n1)C[C@H](NC(=O)[C@H](C(C)C)N(C)C(=O)N1CC[C@@]3(CCN(C)C3=O)C1)C(=O)N1CCC[C@H](N1)C(=O)OCC(C)(C)C2 (single isomer, unassigned) [Example A495] , and I need its recorded IC50.
100 to 1000 nM

I have this compound here, CCn1c(-c2cccnc2[C@@H]2CCCO2)c2c3cc(ccc31)-c1csc(n1)C[C@H](NC(=O)[C@H](C(C)C)N(C)C(=O)N1CC(N(C)C)C1)C(=O)N1CCC[C@H](N1)C(=O)OCC(C)(C)C2 (atropisomer, axis not shown) [Example A327] , and I need its recorded IC50.
> 10000 nM

I have this compound here, CCn1c(-c2cc(N3CCN(C)CC3)cnc2[C@H](C)OC)c2c3cc(ccc31)-c1csc(n1)C[C@H](NC(=O)[C@H](C(C)C)N(C)C(=O)N1CCC13CCN(C)CC3)C(=O)N1CCC[C@H](N1)C(=O)OCC(C)(C)C2 (atropisomer, axis not shown) [Example A483] , and I need its recorded IC50.
100 to 1000 nM

I have this compound here, CCn1c(-c2cnccc2COC)c2c3cc(ccc31)-c1cc(O)cc(c1)C[C@H](NC(=O)[C@H](C(C)C)N(C)C(=O)c1ncco1)C(=O)N1CCC[C@H](N1)C(=O)OCC(C)(C)C2 [Example A38] , and I need its recorded IC50.
1000 to 10000 nM

I have this compound here, CCn1c(-c2cc(N3CCN(C)CC3)cnc2[C@H](C)OC)c2c3cc(ccc31)-c1cc(O)cc(c1)C[C@H](NC(=O)[C@H](C(C)C)N(C)C(=O)[C@@H]1OCC[C@@H]1c1ccccc1)C(=O)N1CCC[C@H](N1)C(=O)OCC(C)(C)C2 (atropisomer, axis not shown) [Example A594] , and I need its recorded IC50.
< 10 nM

I have this compound here, CCn1c(-c2cccnc2[C@H](C)OC)c2c3cc(ccc31)-c1cc(O)cc(c1)C[C@H](NC(=O)[C@H](C(C)C)N(C)C(=O)[C@@H]1CC1(C)C)C(=O)N1CCC[C@H](N1)C(=O)OCC(C)(C)C2 [Example A157] , and I need its recorded IC50.
100 to 1000 nM

I have this compound here, CCn1c(-c2cccnc2[C@H](C)OC)c2c3cc(ccc31)-c1csc(n1)C[C@H](NC(=O)C1(F)COC1)C(=O)N1CCC[C@H](N1)C(=O)OCC(C)(C)C2 [Example A320] , and I need its recorded IC50.
100 to 1000 nM

I have this compound here, CCn1c(-c2cccnc2[C@H](C)OC)c2c3cc(ccc31)-c1csc(n1)C[C@H](NC(=O)[C@H](C(C)C)N(C)C(=O)N1CC(C(C)(C)OC)C1)C(=O)N1CCC[C@H](N1)C(=O)OCC(C)(C)C2 (atropisomer, axis not shown) [Example A614] , and I need its recorded IC50.
100 to 1000 nM

# credit: patent US20230233569A1
